# assay_info: in vitro
# test_conditions: rat, gh3-tre-luc cells, AC50 (uM) modified / 1000
Structures can show the parent of a compound that is named as a salt.
Kindly supply the reported CC50 at 24 h values for the records listed here.

Which measured CC50 at 24 h value corresponds to COc1cccc(N)c1 ?
> 90 µM

Then this compound: O=C(O)c1ccccn1
> 50 µM

Same question for OC[C@@H](O)[C@@H](O[C@@H]1O[C@H](CO)[C@H](O)[C@H](O)[C@H]1O)[C@H](O)[C@@H](O)CO [D-Lactitol monohydrate] please.
> 90 µM

Input CCCCC#N
> 90 µM

Another compound: CCOCCO
> 90 µM

Entry to check: CCn1cc(C(=O)O)c(=O)c2cc(F)c(N3CCNC(C)C3)c(F)c21 (stereo not shown) [Lomefloxacin hydrochloride]
> 50 µM

Another compound to check: C[Si]1(C)O[Si](C)(C)O[Si](C)(C)O[Si](C)(C)O[Si](C)(C)O1
> 90 µM

Same again, this time with C(=C\c1ccccc1)/c1ccccc1 [trans-Stilbene]
> 100 µM

O=C(O)CN(CC(=O)O)Cc1cc2c(cc1O)Oc1cc(O)c(CN(CC(=O)O)CC(=O)O)cc1C21OC(=O)c2ccccc21 , same question.
> 50 µM

Further, for O=C(C(Cl)Cl)N1CCOC12CCCCC2 ?
62.3 µM

---

# assay_info: in vitro
# test_conditions: rat, gh3-tre-luc cells, AC50 (uM) modified / 1000
Counter-ions that a name gives are not always drawn.
measurement_kind: CC50 at 24 h

What value of CC50 at 24 h has been reported for the following compound? NC(Cc1c[nH]c2ccccc12)C(=O)O (racemic)
> 50 µM

Next compound: COc1cc2nc(N(C)CCCNC(=O)C3CCCO3)nc(N)c2cc1OC (centres unmarked) [Alfuzosin hydrochloride]
> 20 µM

# repeat for ClCCOCCOCCCl
> 90 µM

// next record O=[N+]([O-])c1cc(Cl)c(Cl)c(Cl)c1
> 90 µM

Also need COc1ccccc1N=Nc1c(S(=O)(=O)O)cc2cc(S(=O)(=O)O)cc(NC(C)=O)c2c1O [C.I. Acid Violet 12, disodium salt] , thanks.
36.9 µM

Repeat with CCN[C@H]1C[C@H](C)S(=O)(=O)c2sc(S(N)(=O)=O)cc21 [Dorzolamide hydrochloride]
> 50 µM

Can you check C=CCn1c(=O)n(CC=C)c(=O)n(CC=C)c1=O [Triallyl isocyanurate] next?
> 90 µM

And then N#CCCC(Br)(C#N)CBr (centres unmarked) , what is it?
16.2 µM

What about this compound? c1ccc(C2CO2)cc1 (centres unmarked) [Styrene oxide]
> 90 µM

Also need C=CCOc1nc(OCC=C)nc(OCC=C)n1 , thanks.
> 90 µM

Now try CO/N=C(\C(=O)N[C@@H]1C(=O)N2C(C(=O)O)=C(CSc3cnns3)CS[C@H]12)c1csc(N)n1 [Cefuzonam hydrochloride] .
> 50 µM

Another compound to check: CCN(CCO)c1cccc(C)c1
> 90 µM

What about this compound? CCOC(=O)c1ccccc1 [Ethyl benzoate]
> 90 µM

Thanks! And NCCCC[C@H](N)C(=O)O ?
> 50 µM

What do you have for O=C(O)c1ccccc1C(=O)O ?
> 90 µM

// query: CN1C[C@@H]2C[C@H]1CN2c1cc2c(cc1F)c(=O)c(C(=O)O)cn2C1CC1
> 50 µM

Field entry: N[C@@H](Cc1ccc(O)cc1)C(=O)O
> 50 µM

Proceed to Oc1c(Br)c(Br)c(Br)c(Br)c1Br
33.5 µM

Moving on to the next compound: O=C(O)CP(=O)(O)O
> 50 µM

Lookup CC(C)(C)C1=CC(=O)C=C(C(C)(C)C)C1=O
> 90 µM

Record: CCCCCC[C@@H](CCC)C(=O)O
> 50 µM

What do you have for CCCCCCCCCC(=O)OCC [Ethyl decanoate] ?
> 90 µM

Proceed to CCN(CC)C(=O)[C@]1(c2ccccc2)C[C@@H]1CN (racemic) [Milnacipran hydrochloride]
> 50 µM

Another compound to look at: ClCC1CO1 (centres unmarked) [Epichlorohydrin]
> 90 µM

Same thing, different compound: Clc1cnc(Oc2ccc(Oc3ncc(Cl)cc3Cl)cc2)c(Cl)c1
> 60 µM

Ok, now CCCOc1sc(C(=O)N2CCC(c3cc(CN)ccc3F)CC2)c(C)c1Br
3.52 µM

Try the compound CCCCCC[C@@H](O)C/C=C\CCCCCCCC(=O)O [(9Z,12R)-12-Hydroxyoctadec-9-enoic acid]
80.8 µM

Cool, now Oc1ccc(Cl)cc1C1CCCC1
55.3 µM

Now the compound COc1ccc(C(=O)c2ccc(C)cc2)c(O)c1
> 90 µM

Further, for CCCCNc1c(C(=O)OCC)c(C)nc2c1cnn2CC [Tracazolate hydrochloride] ?
> 50 µM

Repeat for the following compound: Nc1ccc2cc(S(=O)(=O)O)ccc2c1
> 90 µM

Next compound up: C#C[C@]1(OC(=O)CCCCCC)CC[C@H]2[C@@H]3CCC4=CC(=O)CC[C@@H]4[C@H]3CC[C@@]21C
10.7 µM

Follow-up item: Cc1cc(Cl)ccc1O
> 90 µM

Another: CCNC(=O)NC(=O)/C(C#N)=N/OC
> 90 µM

Ok, now CC(C)(C)c1csc(-c2cc3cc(OCc4ccccc4CC(=O)O)ccc3o2)n1
79.7 µM

Field entry: Cc1ncc(CSSCc2cnc(C)c(O)c2CO)c(CO)c1O [Pyrithioxin dihydrochloride]
> 50 µM

Param item: Cc1cc(N)c2ccccc2[n+]1CCCCCCCCCC[n+]1c(C)cc(N)c2ccccc21 [Dequalinium dichloride]
12.4 µM

Param item: Cc1ccccc1Cl
> 90 µM

---

# System: GH3-TRE-Luc cell line
# test_conditions: read-out: AC50 (uM) modified / 1000; Tox21_110001=Tox21_303652; viability, 1 nM T3 present, 24 h
measurement_kind: CC50

Entry C[C@@H]1C[C@@H]([C@H](O)CC2CC(=O)NC(=O)C2)C(=O)[C@@H](C)C1 [Cycloheximide] has what CC50?
1.49 µM

---

# assay_info: in vitro
# test_conditions: rat, gh3-tre-luc cells, AC50 (uM) modified / 1000
Structures can show the parent of a compound that is named as a salt.
measurement_kind: CC50 at 24 h

// CC50 at 24 h lookup, key: CN(C)CCCN1c2ccccc2Sc2ccccc21 [Promazine hydrochloride]
4.95 µM

Field entry: CCCCCCCCCCCCCCCCCCCl [Octadecyl chloride]
> 5 µM

Check N=C(N)NCc1cccc(I)c1 [3-Iodobenzylguanidine hemisulfate] too.
> 50 µM

Proceed to Oc1nc2ccc(Cl)cc2o1 [6-Chloro-2,3-dihydrobenzoxazol-2-one]
> 90 µM

One more compound: CC(C(=O)O)c1ccc2c(c1)CC(=O)c1ccccc1S2 (stereo not shown)
> 50 µM

Further, for Cc1ccccc1OCC1CO1 (stereo not shown) ?
> 90 µM

What do we get for Oc1cc(O)c(Cl)cc1Cl ?
> 90 µM

// query: CCCCOC(=O)C(C)OC(=O)CCC (stereo not shown) [1-Butoxy-1-oxopropan-2-yl butanoate]
> 90 µM

Consider next the compound Cc1nc(-c2ccc(OCC(C)C)c(C#N)c2)sc1C(=O)O in the same way.
> 50 µM

And for NCC(CC(=O)O)c1ccc(Cl)cc1 (stereo not shown) ?
> 50 µM

---

# assay_info: in vitro
# test_conditions: rat, gh3-tre-luc cells, AC50 (uM) modified / 1000, Tox21_110001=Tox21_301334; viability, 1 nM T3 present, 24 h
measurement_kind: CC50 at 24 h

State the recorded CC50 at 24 h for this entry: COP(=S)(OC)Oc1cc(Cl)c(Cl)cc1Cl
> 90 µM

---

# Test system: GH3-TRE-Luc cell line
# test_conditions: read-out: AC50 (uM) modified / 1000; Tox21_110001=Tox21_301702; viability, 1 nM T3 present, 24 h
Counter-ions that a name gives are not always drawn.
measurement_kind: CC50
Answer shape: numeric part, then the unit.

Which CC50 value is on record for CCCCCCCCCCCCN [Dodecylamine hydrochloride] ?
19.6 µM

---

# assay_info: in vitro
# test_conditions: rat, gh3-tre-luc cells, AC50 (uM) modified / 1000, Tox21_110001=Tox21_301105; viability, 1 nM T3 present, 24 h
measurement_kind: CC50 at 24 h

Using the record for Nc1nc(N)nc(Cl)n1 , report its CC50 at 24 h.
> 90 µM

---

# assay_info: in vitro
# test_conditions: rat, gh3-tre-luc cells, AC50 (uM) modified / 1000, Tox21_110001=Tox21_300725; viability, 1 nM T3 present, 24 h
measurement_kind: CC50 at 24 h

Reported CC50 at 24 h for OCC(c1ccc(Cl)cc1)c1ccc(Cl)cc1 : what is it?
> 90 µM
